tgt: Somatostatin receptor 3 (SSTR3) (human), P32745
Sequence (P32745 whole entry): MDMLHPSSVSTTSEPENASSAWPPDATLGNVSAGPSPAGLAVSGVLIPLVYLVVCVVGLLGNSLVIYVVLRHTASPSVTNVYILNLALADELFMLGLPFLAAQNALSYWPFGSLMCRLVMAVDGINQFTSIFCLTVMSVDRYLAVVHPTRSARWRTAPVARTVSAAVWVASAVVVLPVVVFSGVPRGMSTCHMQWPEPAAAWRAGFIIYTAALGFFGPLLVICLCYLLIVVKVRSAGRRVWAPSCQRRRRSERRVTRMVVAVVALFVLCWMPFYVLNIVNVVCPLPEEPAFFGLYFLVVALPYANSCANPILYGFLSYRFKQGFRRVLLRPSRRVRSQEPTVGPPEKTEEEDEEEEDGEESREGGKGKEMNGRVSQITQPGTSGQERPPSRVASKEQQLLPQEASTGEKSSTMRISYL
assay_context: octanoyl moiety at the N-terminus (N-octanoyl amide); L-mesityl alanine (Msa) at position 5; D-Trp at position 7; disulfide bridge between the two cysteines
measured_metric: pIC50
Answer as the number alone; pIC50 is minus log10 of concentration in mol/L.

Record PCKNFFWKTFTSCK [Cortistatin analogue 5] . Reported pIC50: 8.29
